# Lookup of reported TG keyed by entry
Species on record: Rattus norvegicus
Test Method Notes: Open TG-GATES - Regimen: Single
Format: toxicity, organism-based, Sprague-Dawley
Parameters: regimen Single, gender Male, age 6 weeks
Condition Parameters: in vivo, po, 0 mg/kg, 6 h, tissue Plasma, route gavage, dose level Control
# unit: mg/dL | format: bare number

Some solved cases for reference:
| Molecule | Unit Spec | TG |
| --- | --- | --- |
| C1CCC(C(CC2CCCCN2)C2CCCCC2)CC1 (stereo not given) [PERHEXILINE] | mg/dL | 77.4 |
| CCOC(=O)[C@H](CCc1ccccc1)N[C@@H](C)C(=O)N1CCC[C@H]1C(=O)O | mg/dL | 46.8 |
| CC(CN1c2ccccc2Sc2ccccc21)N(C)C (stereo not given) [PROMETHAZINE] | mg/dL | 53 |

Query block: Request the reported TG associated with Clc1c(Cl)c(Cl)c(Cl)c(Cl)c1Cl [PERCHLOROBENZENE]
Result block: 71.2

Query block: Request the reported TG associated with CN(C)[C@@H]1C(O)=C(C(N)=O)C(=O)[C@@]2(O)C(O)=C3C(=O)c4c(O)cccc4[C@@](C)(O)[C@H]3C[C@@H]12 [TETRACYCLINE]
Result block: 36

Query block: Request the reported TG associated with C#C[C@]1(O)CC[C@H]2[C@@H]3CCC4=Cc5oncc5C[C@]4(C)[C@H]3CC[C@@]21C [DANAZOL]
Result block: 49.4

###

Species: Rattus norvegicus
Test Method Notes: Open TG-GATES - Regimen: Daily Repeat
Assay type: toxicity, organism-based, Sprague-Dawley
Design: regimen Daily Repeat, gender Male, age 6 weeks
Condition Parameters: in vivo, po, 0 mg/kg, 72 h, tissue Blood, route gavage, dose level Control, time 3 day
Property Name: MCHC (%)
# unit: % | format: bare number

Query block: Request the reported MCHC associated with "C#C[C@]1(O)CC[C@H]2[C@@H]3CCC4=Cc5oncc5C[C@]4(C)[C@H]3CC[C@@]21C"
Result block: 32.7

Query block: Request the reported MCHC associated with C1CCC(C(CC2CCCCN2)C2CCCCC2)CC1 (stereo not given)
Result block: 33.8

Query block: Request the reported MCHC associated with CC(=O)Nc1nnc(S(N)(=O)=O)s1 [ACETAZOLAMIDE]
Result block: 34

Query block: Request the reported MCHC associated with "Clc1c(Cl)c(Cl)c(Cl)c(Cl)c1Cl"
Result block: 33.5

Query block: Request the reported MCHC associated with "Cc1cccc(Nc2ccccc2C(=O)O)c1C"
Result block: 35.1

Query block: Request the reported MCHC associated with "CN1C(C(=O)Nc2ccccn2)=C(O)c2sc(Cl)cc2S1(=O)=O"
Result block: 33.5

Query block: Request the reported MCHC associated with "CN(C)[C@@H]1C(O)=C(C(N)=O)C(=O)[C@@]2(O)C(O)=C3C(=O)c4c(O)cccc4[C@@](C)(O)[C@H]3C[C@@H]12"
Result block: 33.1

Query block: Request the reported MCHC associated with "CCOC(=O)[C@H](CCc1ccccc1)N[C@@H](C)C(=O)N1CCC[C@H]1C(=O)O"
Result block: 32.9

Query block: Request the reported MCHC associated with "O=C(O)Cc1ccccc1Nc1c(Cl)cccc1Cl"
Result block: 34.5

Query block: Request the reported MCHC associated with CC(CN1c2ccccc2Sc2ccccc21)N(C)C (stereo not given)
Result block: 33

###

Species: Rattus norvegicus
Test Method Notes: Open TG-GATES - Regimen: Single
Assay type: toxicity, organism-based, Sprague-Dawley
Set-up: regimen Single, gender Male, age 6 weeks
Condition Parameters: in vivo, po, 0 mg/kg, 3 h, tissue Plasma, route gavage, dose level Control
# Lookup of reported Na keyed by entry
# unit: meq/L | format: bare number

Some solved cases for reference:
| Molecule | Na (meq/L) |
| --- | --- |
| C#C[C@]1(O)CC[C@H]2[C@@H]3CCC4=Cc5oncc5C[C@]4(C)[C@H]3CC[C@@]21C [DANAZOL] | 142.8 |
| Clc1c(Cl)c(Cl)c(Cl)c(Cl)c1Cl [PERCHLOROBENZENE] | 140.6 |

Query block: Request the reported Na associated with CC(CN1c2ccccc2Sc2ccccc21)N(C)C (stereo not given) [PROMETHAZINE]
Result block: 142.2

Query block: Request the reported Na associated with C1CCC(C(CC2CCCCN2)C2CCCCC2)CC1 (stereo not given) [PERHEXILINE]
Result block: 140.4

Query block: Request the reported Na associated with "CCOC(=O)[C@H](CCc1ccccc1)N[C@@H](C)C(=O)N1CCC[C@H]1C(=O)O"
Result block: 140.2

###

# Lookup of reported APTT keyed by entry
Species: Rattus norvegicus
Test Method Notes: Open TG-GATES - Regimen: Daily Repeat
Format: toxicity, organism-based, Sprague-Dawley
Set-up: regimen Daily Repeat, gender Male, age 6 weeks
Condition Parameters: in vivo, po, 0 mg/kg, 72 h, tissue Blood, route gavage, dose level Control, time 3 day

Some solved cases for reference:
| Compound | Property Name | Experimental Value |
| --- | --- | --- |
| C1CCC(C(CC2CCCCN2)C2CCCCC2)CC1 (centres undefined) | APTT | 21.9 s |
| CC(CN1c2ccccc2Sc2ccccc21)N(C)C (centres undefined) | APTT | 22.8 s |
| CC(=O)Nc1nnc(S(N)(=O)=O)s1 [ACETAZOLAMIDE] | APTT | 21.2 s |
| CCOC(=O)[C@H](CCc1ccccc1)N[C@@H](C)C(=O)N1CCC[C@H]1C(=O)O | APTT | 16 s |
| C#C[C@]1(O)CC[C@H]2[C@@H]3CCC4=Cc5oncc5C[C@]4(C)[C@H]3CC[C@@]21C | APTT | 23.9 s |
| CN(C)[C@@H]1C(O)=C(C(N)=O)C(=O)[C@@]2(O)C(O)=C3C(=O)c4c(O)cccc4[C@@](C)(O)[C@H]3C[C@@H]12 | APTT | 16 s |

Query block: Request the reported APTT associated with "CN1C(C(=O)Nc2ccccn2)=C(O)c2sc(Cl)cc2S1(=O)=O"
Result block: 20.7 s

Query block: Request the reported APTT associated with "Cc1cccc(Nc2ccccc2C(=O)O)c1C"
Result block: 19.9 s

Query block: Request the reported APTT associated with "Clc1c(Cl)c(Cl)c(Cl)c(Cl)c1Cl"
Result block: 16.2 s

###

Organism: Rattus norvegicus
Test Method Notes: Open TG-GATES - Regimen: Single
Type: toxicity, organism-based, Sprague-Dawley
Set-up: regimen Single, gender Male, age 6 weeks
Condition Parameters: in vivo, po, 0 mg/kg, 6 h, tissue Plasma, route gavage, dose level Control
For each record, check the reported TC: if it is below 80 mg/dL write 1, else write 0.

| Compound | Group Label |
| --- | --- |
| CCOC(=O)[C@H](CCc1ccccc1)N[C@@H](C)C(=O)N1CCC[C@H]1C(=O)O | 1 |
| COc1cc([C@@H]2c3cc4c(cc3[C@@H](O[C@@H]3O[C@@H]5CO[C@@H](C)O[C@H]5[C@H](O)[C@H]3O)[C@H]3COC(=O)[C@H]23)OCO4)cc(OC)c1O [ETOPOSIDE] | 1 |

Query block: Is it true that TC reported for CC(CN1c2ccccc2Sc2ccccc21)N(C)C (stereo not given) [PROMETHAZINE] is less than 80 mg/dL?
Result block: 0

Query block: Is it true that TC reported for CN(C)[C@@H]1C(O)=C(C(N)=O)C(=O)[C@@]2(O)C(O)=C3C(=O)c4c(O)cccc4[C@@](C)(O)[C@H]3C[C@@H]12 [TETRACYCLINE] is less than 80 mg/dL?
Result block: 1

Query block: Is it true that TC reported for C#C[C@]1(O)CC[C@H]2[C@@H]3CCC4=Cc5oncc5C[C@]4(C)[C@H]3CC[C@@]21C [DANAZOL] is less than 80 mg/dL?
Result block: 1

Query block: Is it true that TC reported for CN1C(C(=O)Nc2ccccn2)=C(O)c2sc(Cl)cc2S1(=O)=O [LORNOXICAM] is less than 80 mg/dL?
Result block: 0

Query block: Is it true that TC reported for Clc1c(Cl)c(Cl)c(Cl)c(Cl)c1Cl [PERCHLOROBENZENE] is less than 80 mg/dL?
Result block: 1

###

Species: Rattus norvegicus
Test Method Notes: Open TG-GATES - Regimen: Daily Repeat
Type: toxicity, organism-based, Sprague-Dawley
Parameters: regimen Daily Repeat, gender Male, age 6 weeks
Condition Parameters: in vivo, po, 0 mg/kg, […], tissue Kidney, route gavage, dose level Control, time 7 day
Property Name: KIDNEY_TOTAL (g)
# unit: g | format: bare number

Some solved cases for reference:
| Molecule | Property Name | Experimental Value |
| --- | --- | --- |
| C1CCC(C(CC2CCCCN2)C2CCCCC2)CC1 (centres undefined) | KIDNEY_TOTAL | 2.2 |
| CN1C(C(=O)Nc2ccccn2)=C(O)c2sc(Cl)cc2S1(=O)=O | KIDNEY_TOTAL | 2.4 |
| Clc1c(Cl)c(Cl)c(Cl)c(Cl)c1Cl | KIDNEY_TOTAL | 2.3 |

Now for another entry.
Query block: Request the reported KIDNEY_TOTAL associated with CC(CN1c2ccccc2Sc2ccccc21)N(C)C (centres undefined)
Result block: 2.3
